System: Mycobacterium kansasii DSM 44162 (ATCC 12478)
Test Method Notes: Antimycobacterial microdilution broth assay (resazurin), M. kansasii
Assay type: cell-based
Test Parameters: Mycobacterium kansasii, 96 h, read-out: MIC M. kansasii, microdilution broth, resazurin, 96 h
Endpoint: MIC (µg/mL)
Give the value in µg/mL but do not write µg/mL after it.

Compound | Measured On | Value Observed
COc1ccc2c(c1OC)C(OC1c3c(ccc(OC)c3OC)-c3ccc4cc5c(cc4c3N1C)OCO5)N(C)c1c-2ccc2cc3c(cc12)OCO3 (stereo not drawn) [compound 5, bis-[6-(5,6-dihydrochelerythrinyl)]ether] | Mycobacterium kansasii DSM 44162 (ATCC 12478) | 31.2

I'm curious: which MIC was measured for "COc1cc2c(cc1O)[C@@H]1Cc3ccc(OC)c(O)c3CN1CC2" tested on Mycobacterium kansasii DSM 44162 (ATCC 12478)?
15.6

* * *

Reported MIC by item:
Tested on: Mtb H37Ra ITM-M006710 (ATCC 9431)
Test Method Notes: Antimycobacterial microdilution broth assay (resazurin), Mtb H37Ra
Assay type: cell-based, Mycobacterium tuberculosis
Test Parameters: Mycobacterium tuberculosis, calculated from MIC (µg/mL) and MW; read-out: MIC Mtb H37Ra
Give the value in µM but do not write µM after it.

Before answering, review these 4 worked examples.
Compound | Endpoint | Unit Spec | Value Observed
COc1cc2c(cc1O)[C@@H]1Cc3ccc(OC)c(O)c3CN1CC2 [compound 15, scoulerine] | MIC | µM | 764
COc1ccc2cc3[n+](cc2c1OCc1ccccc1)CCc1cc2c(cc1-3)OCO2 [16a, 9-O-benzylberberine chloride] | MIC | µM | 13.9
COc1ccc2cc3[n+](cc2c1OCc1ccc(Cl)cc1)CCc1cc2c(cc1-3)OCO2 [16i, 9-O-(4-chlorbenzyl)berberine chloride] | MIC | µM | 5.93
COc1ccc2cc3[n+](cc2c1OCc1cccc(Br)c1)CCc1cc2c(cc1-3)OCO2 [16f, 9-O-(3-brombenzyl)berberine chloride] | MIC | µM | 5.93

Which MIC is reported for this compound? NNC(=O)c1ccncc1 [isoniazid, reference compound]
1.82

Which MIC is reported for this compound? COc1ccc2cc3[n+](cc2c1OCc1ccc(Br)cc1)CCc1cc2c(cc1-3)OCO2 [16g, 9-O-(4-brombenzyl)berberine chloride]
7.42

Which MIC is reported for this compound? COc1ccc2c(c1OC)CN(C)c1c-2ccc2cc3c(cc12)OCO3 [compound 2, dihydrochelerythrine]
716

* * *

Reported viability at 25 µM by item:
Test Method Notes: in vitro
Test Parameters: human, % of cell viability compared to control, 2. measurement, HepG2, 25 µM
Give the value in % but do not write % after it.

Compound | viability at 25 µM [%]
COc1ccc2cc3[n+](cc2c1OCc1ccccc1C)CCc1cc2c(cc1-3)OCO2 [16b, 9-O-(2-methylbenzyl)berberine chloride] | 51.6

Below: the item to evaluate.
Which viability at 25 µM is reported for this compound? COc1ccc2cc3[n+](cc2c1OCc1cccc(Cl)c1)CCc1cc2c(cc1-3)OCO2 [16h, 9-O-(3-chlorbenzyl)berberine chloride]
44.6

* * *

Reported viability at 10 µM by item:
Test Method Notes: in vitro
Test Parameters: human, % of cell viability compared to control, 1. measurement, HepG2, 10 µM
Give the value in % but do not write % after it.

Before answering, review these 3 worked examples.
Molecule | Unit Spec | viability at 10 µM
COc1ccc2cc3[n+](cc2c1OCc1cccc(Br)c1)CCc1cc2c(cc1-3)OCO2 [16f, 9-O-(3-brombenzyl)berberine chloride] | % | 54.8
COc1ccc2cc3[n+](cc2c1OCc1ccccc1)CCc1cc2c(cc1-3)OCO2 [16a, 9-O-benzylberberine chloride] | % | 68.9
COc1ccc2cc3[n+](cc2c1OCc1ccccc1C)CCc1cc2c(cc1-3)OCO2 [16b, 9-O-(2-methylbenzyl)berberine chloride] | % | 73

Below: the item to evaluate.
Which viability at 10 µM is reported for this molecule? COc1ccc2cc3[n+](cc2c1OCc1ccc(Br)cc1)CCc1cc2c(cc1-3)OCO2 [16g, 9-O-(4-brombenzyl)berberine chloride]
53.9
